Just for reference, the supplement of paper PMC6555819 is where these values come from.

Tested on: LXRb:RXRa (NR concentration 270 nM, RXRa partner concentration 90 nM)
Assay: PBM binding z-score (relative to random genomic background probes); higher = stronger binding; sequences stand for … in GC…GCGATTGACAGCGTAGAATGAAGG
assay.readout: PBM binding z-score
Give bare numbers.

These recorded examples may help you get a feel for the data.
- polymer.sequence: "GATACAGGTTCAGCTAGAGGCCAGAGTATGGAAA"
  system.tested: "LXRb:RXRa (NR concentration 270 nM, RXRa partner concentration 90 nM)"
  PBM binding z-score: 0.305
- polymer.sequence: "AGAATGTGGTTACCAAAGATCAGGGAAACGCTTG"
  system.tested: "LXRb:RXRa (NR concentration 270 nM, RXRa partner concentration 90 nM)"
  PBM binding z-score: -0.139
- polymer.sequence: "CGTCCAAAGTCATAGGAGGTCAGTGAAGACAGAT"
  system.tested: "LXRb:RXRa (NR concentration 270 nM, RXRa partner concentration 90 nM)"
  PBM binding z-score: 2.44

For every item below, please supply its PBM binding z-score.
1. CCTTACGGGTCACTGACAGGTTACAGCATTTGGA
2. GCAGACAGGTGAAACGGAGGTAACTCAGGGTGGC
3. CGAACGAGGGCATGAGTTGATAACAAATGCCGAT
4. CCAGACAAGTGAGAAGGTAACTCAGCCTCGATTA
5. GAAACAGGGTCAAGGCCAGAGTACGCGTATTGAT

[3.43, -0.0336, 0.254, 0.312, 3.92]

For every item below, please supply its PBM binding z-score.
1. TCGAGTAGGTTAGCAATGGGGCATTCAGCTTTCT
2. TCTAGTTGGTCAAAGGGCACACACTCGAAATGCG
3. CGTCCAAGGTCAGAGAGGTCAGTGCATGCCGAGT

[0.235, 1.48, 4.41]

Please report the measured PBM binding z-score for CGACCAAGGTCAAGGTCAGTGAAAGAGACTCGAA tested on LXRb:RXRa (NR concentration 270 nM, RXRa partner concentration 90 nM).
4.53

---

System: THRa:RXRa (NR concentration 90 nM, RXRa partner concentration 90 nM)
Assay: PBM binding z-score (relative to random genomic background probes); higher = stronger binding; sequences stand for … in GC…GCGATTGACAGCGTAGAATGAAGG
Classify by measured PBM binding z-score: True if it is equal to or exceeds 1, False if it is smaller.

Before answering, review these 5 worked examples.
- polymer.sequence: "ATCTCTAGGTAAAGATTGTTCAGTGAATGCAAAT"
  category: "False"
- polymer.sequence: "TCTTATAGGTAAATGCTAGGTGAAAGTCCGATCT"
  category: "True"
- polymer.sequence: "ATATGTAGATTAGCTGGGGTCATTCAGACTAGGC"
  category: "True"
- polymer.sequence: "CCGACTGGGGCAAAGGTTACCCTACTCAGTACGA"
  category: "True"
- polymer.sequence: "GTACAAAGGTGAATAGGTCGTTGATGAGTAGGCG"
  category: "True"

Assess whether reported PBM binding z-score for CCTGCTAGGTCAATGGTCAGTTAAAGCAGCTCGC sits at 1 or higher.
True

Assess whether reported PBM binding z-score for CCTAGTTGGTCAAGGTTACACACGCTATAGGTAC sits at 1 or higher.
True

Assess whether reported PBM binding z-score for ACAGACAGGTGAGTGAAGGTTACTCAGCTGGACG sits at 1 or higher.
True

Assess whether reported PBM binding z-score for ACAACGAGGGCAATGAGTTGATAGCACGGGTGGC sits at 1 or higher.
False

Assess whether reported PBM binding z-score for CGTCCAAGGTCAAAGCTCAGTGAAGAGATGACGG sits at 1 or higher.
True

Assess whether reported PBM binding z-score for TCATATAGGTAATACAGGTGACAGTCGGCATCTA sits at 1 or higher.
False

Assess whether reported PBM binding z-score for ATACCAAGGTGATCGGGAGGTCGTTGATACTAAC sits at 1 or higher.
True

Assess whether reported PBM binding z-score for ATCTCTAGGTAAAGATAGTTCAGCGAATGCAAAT sits at 1 or higher.
False

Assess whether reported PBM binding z-score for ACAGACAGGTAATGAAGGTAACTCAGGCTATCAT sits at 1 or higher.
True

Assess whether reported PBM binding z-score for TCTTGTAGATCAATAGAGGTTACGAAAGTGCGCT sits at 1 or higher.
True

Assess whether reported PBM binding z-score for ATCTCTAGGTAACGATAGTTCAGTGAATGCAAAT sits at 1 or higher.
False

Assess whether reported PBM binding z-score for TCATGTAGATCAAGCAGGTTAAGAAAGCCTGAGT sits at 1 or higher.
False

Assess whether reported PBM binding z-score for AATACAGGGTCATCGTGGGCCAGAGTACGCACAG sits at 1 or higher.
True

Assess whether reported PBM binding z-score for ACTTACGGGTCAACGAGGATATAGCACGCGTATA sits at 1 or higher.
True
